# test-target: Solute carrier family 22 member 1 (Rattus norvegicus, UniProt Q63089)
# Sequence (Q63089 whole entry): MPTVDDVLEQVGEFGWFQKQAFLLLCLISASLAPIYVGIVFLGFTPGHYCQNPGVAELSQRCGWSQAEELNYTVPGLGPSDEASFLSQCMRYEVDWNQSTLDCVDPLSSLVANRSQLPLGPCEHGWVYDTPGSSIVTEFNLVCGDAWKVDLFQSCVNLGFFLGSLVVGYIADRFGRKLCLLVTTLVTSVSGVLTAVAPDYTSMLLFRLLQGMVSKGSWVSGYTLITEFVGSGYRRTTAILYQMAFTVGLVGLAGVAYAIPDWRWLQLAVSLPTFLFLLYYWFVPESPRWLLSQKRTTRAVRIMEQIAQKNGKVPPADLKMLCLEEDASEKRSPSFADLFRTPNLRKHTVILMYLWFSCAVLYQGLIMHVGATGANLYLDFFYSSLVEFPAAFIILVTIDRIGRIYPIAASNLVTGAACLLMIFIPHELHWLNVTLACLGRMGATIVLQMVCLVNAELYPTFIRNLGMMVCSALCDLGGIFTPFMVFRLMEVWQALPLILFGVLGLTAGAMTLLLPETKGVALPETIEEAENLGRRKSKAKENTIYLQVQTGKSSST
reported-property: Ki

# molecule, reported-property, result
data = [
    ("c1ccc2nc(N3CCNCC3)ccc2c1 [2-Piperazin-1-yl-quinoline (Quipazine)]", "Ki", "> 10 µM"),
]

Values were extracted from BindingDB's records for doi:10.1016/0014-2999(89)90802-9.
